Recorded MIC for the following compounds
system: H. influenza Hi4 efflux pump KO; assay: Antibacterial activity assay (MIC), H. influenza Hi4; type: cell-based
Quick reminder: number only, in µg/mL, skip the unit.

Request: // returns reported MIC for input `COC[C@@H]1[C@@H](O)[C@@H]2[C@H]3C=C[C@@H]4[C@@H](COC)C(=O)O[C@H]([C@H](O)COC)[C@H](C)/C=C(\C)[C@@]24O[C@H]3[C@@H]1OC(=O)c1ccoc1`
Response: 8

Request: For the compound `COC[C@@H]1[C@@H](O)[C@@H]2[C@H]3C=C[C@@H]4[C@@H](COC)C(=O)O[C@H]([C@H](O)COC)[C@H](C)/C=C(\C)[C@@]24O[C@H]3[C@@H]1OC(=O)c1cc(C)c[nH]1` , what MIC is on record?
Response: 4

Request: Reported MIC, compound `COCC(=O)[C@H]1OC(=O)[C@H](COC)[C@H]2C=C[C@H]3[C@H]4O[C@]2(/C(C)=C/[C@H]1C)[C@@H]3[C@H](O)[C@@H](COC)[C@H]4OC(=O)c1ccc[nH]1` : ____
Response: 32

Request: Need MIC, item `COC/C(=N\OC)[C@H]1OC(=O)[C@H](COC)[C@H]2C=C[C@H]3[C@H]4O[C@]2(/C(C)=C/[C@H]1C)[C@@H]3[C@H](O)[C@@H](COC)[C@H]4OC(=O)c1ccc[nH]1`
Response: 8

Request: Form field: reported MIC of `COC[C@@H]1[C@@H](O)[C@@H]2[C@H]3C=C[C@@H]4[C@@H](COC)C(=O)O[C@H]([C@H](O)COC)[C@H](C)/C=C(\C)[C@@]24O[C@H]3[C@@H]1OC(=O)c1ccc(C)[nH]1`
Response: 32

Request: # lookup: MIC of COC[C@@H]1[C@@H](O)[C@@H]2[C@H]3C=C[C@@H]4[C@@H](COC)C(=O)O[C@H](C(C)(O)COC)[C@H](C)/C=C(\C)[C@@]24O[C@H]3[C@@H]1OC(=O)c1ccc[nH]1 (stereo partly drawn)
Response: 8

Request: Quick check: MIC of `COC[C@@H](O)[C@H]1OC(=O)[C@H](COC)[C@H]2C=C[C@H]3[C@H]4O[C@]2(/C(C)=C/[C@H]1C)[C@@H]3[C@H](O)[C@@H](C)[C@H]4OC(=O)c1ccoc1` ?
Response: 0.5

Request: Value lookup for MIC; key = `COC[C@@H](O)[C@H]1OC(=O)[C@H](COC)[C@H]2C=C[C@H]3[C@H]4O[C@]2(/C(C)=C/[C@H]1C)[C@@H]3[C@H](O)[C@@H](C)[C@H]4OC(=O)c1cc(F)c[nH]1`
Response: 0.5

Request: Suppose we examine the compound `COC[C@@H]1[C@@H](O)[C@@H]2[C@H]3C=C[C@@H]4[C@@H](COC)C(=O)O[C@H]([C@H](O)COC)[C@H](C)/C=C(\C)[C@@]24O[C@H]3[C@@H]1OC(=O)c1ccc[nH]1` ; what MIC value has been reported?
Response: 4

----------
System: H. influenza Hi4 efflux pump KO | Read-out: MIC
Provide the reading as a plain figure in µg/mL.

compound="COC[C@@H]1[C@@H](O)[C@@H]2[C@H]3C=C[C@@H]4[C@@H](COC)C(=O)O[C@H]([C@@H](COC)OC)[C@H](C)/C=C(\\C)[C@@]24O[C@H]3[C@@H]1OC(=O)c1ccc[nH]1 [Compound 18]" measured_value=4

Request: Write down the reported MIC of COCC(=NOC(C)=O)[C@H]1OC(=O)[C@H](COC)[C@H]2C=C[C@H]3[C@H]4O[C@]2(/C(C)=C/[C@H]1C)[C@@H]3[C@H](O)[C@@H](COC)[C@H]4OC(=O)c1ccc[nH]1 [Compound 29] , test system: H. influenza Hi4 efflux pump KO.
Response: 2

Request: Under H. influenza Hi4 efflux pump KO: MIC value of COC[C@@H](O)[C@H]1OC(=O)[C@H](COC)[C@H]2C=C[C@H]3[C@H]4O[C@]2(/C(C)=C/[C@H]1C)[C@@H]3[C@H](O)[C@@H](C)[C@H]4O [Compound 1, Baleomycin] ?
Response: 2

Request: Look up MIC with H. influenza Hi4 efflux pump KO for this compound: COC[C@@H]1[C@@H](O)[C@@H]2[C@H]3C=C[C@@H]4[C@@H](COC)C(=O)OC[C@H](C)/C=C(\C)[C@@]24O[C@H]3[C@@H]1OC(=O)c1ccc[nH]1 [Compound 22]
Response: 32

Request: Lab request: please report MIC under test system H. influenza Hi4 efflux pump KO for COC[C@H]1[C@@H](O)[C@@H]2O[C@@]34/C(C)=C/[C@@H](C)[C@@H]([C@H](O)COC)OC(=O)[C@H](COC)[C@H]3C=C[C@@H]2[C@H]4[C@@H]1O [Branimycin, reference compound]
Response: 4
